- ASSAY_EXPLANATION: chemical genetic growth profiling, strain panel (AID 1159580);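 also: tested at 20 µM; growth read once vehicle control cultures reached saturation at 30 °C; 1 = growth at the plate median or of vehicle wells; lower values mean less growth of the strain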
- CONDITION_DESCRIPTION: S. cerevisiae deletion strains, growth OD, locus YKL101W, strain HSL1, hits give low values
Out of some 5,500 compounds screened, about 2,000 (36%) were called active. Another 18% or so got no clear call; they are omitted. This is one part of the list.
Entries whose normalized growth is below 0.9 take t; entries at or above 0.9 take f.

See these solved cases before continuing.
{"columns": ["LINE_NOTATION", "ANSWER_LABEL"],
 "data": [
  ["CSc1n[nH]c(-c2cc(C(F)(F)F)cc(C(F)(F)F)c2)n1", "t"],
  ["CC(C)(C)C(=O)N(Cc1cccnc1)Cc1ccc(Cl)cc1Cl", "f"],
  ["N#Cc1c2ccccc2nc2ccccc12", "t"]
]}

stdin: Report whether reported normalized growth is lower than 0.9 (strictly) for O=[N+]([O-])c1cnc(Sc2nnc(SCc3cccc(C(F)(F)F)c3)s2)s1
stdout: t

====

- ASSAY_EXPLANATION: chemical genetic growth profiling, strain panel (AID 1159580);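 also: tested at 20 µM; growth read once vehicle control cultures reached saturation at 30 °C; 1 = growth at the plate median or of vehicle wells; lower values mean less growth of the strain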
- CONDITION_DESCRIPTION: S. cerevisiae deletion strains, growth OD, locus YLR027C, strain aat2
The campaign covered roughly 5,500 compounds. About 2,000 (36%) were called active. About 18% were inconclusive and are not listed. Cut-off read from the data, not from the text of the source: active = normalized growth mostly below about 0.91 (no sharp cut-off); inconclusive = no clear call, values can overlap the other calls; inactive = mostly above about 0.92. This is one part of the list.
Hi! Could you answer with just one of these? active, inactive

{"columns": ["COMPOUND", "ANSWER_LABEL"],
 "data": [
  ["CCN1C[C@]2(OC(=O)c3ccccc3NC(C)=O)CCC(OC)[C@]34C1[C@H](CC23)[C@@]1(O)CC(OC)[C@H]2CC4C1(O)[C@H]2OC (stereo partly drawn)", "inactive"],
  ["NNc1nncc2ccccc12", "inactive"]
]}

stdin: Which outcome was assigned to COc1cccc2c1C(=O)c1c(O)c3c(c(O)c1C2=O)C[C@@](O)(C(C)=O)C[C@@H]3O[C@H]1C[C@H](N)[C@H](O)[C@H](C)O1 in this test?
stdout: inactive

stdin: Per the records of this test, what outcome belongs to O=C(Nc1ccc(C(=O)O)c(O)c1)c1ccccc1 ?
stdout: inactive

stdin: Field: outcome | Entry: Cc1cn([C@H]2C[C@H](N=[N+]=[N-])[C@@H](CO)O2)c(=O)[nH]c1=O
stdout: inactive

stdin: What call does the record list for Nc1c2c(nc3ccccc13)CCCC2 ?
stdout: inactive

stdin: State the result this test recorded for CCOc1ccc2nc3cc(N)ccc3c(N)c2c1 .
stdout: active

stdin: Hey, what did the test say about Clc1ccccc1C(c1ccccc1)(c1ccccc1)n1ccnc1 ?
stdout: active

====

Task for the reader: assign each of the following molecules its reported normalized growth.
- ASSAY_EXPLANATION: chemical genetic growth profiling, strain panel (AID 1159580);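 also: tested at 20 µM; growth read once vehicle control cultures reached saturation at 30 °C; 1 = growth at the plate median or of vehicle wells; lower values mean less growth of the strain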
- CONDITION_DESCRIPTION: S. cerevisiae deletion strains, growth OD, locus YKR001C, strain vps1, hits give low values
The campaign covered roughly 5,500 compounds. About 2,000 (36%) were called active. Roughly 18% stayed inconclusive and do not appear here. The list shows a part of the results.
One number for each entry.

Below are worked cases with known answers.
{"columns": ["MOLECULE", "normalized growth"],
 "data": [
  ["CC(C)CC(N(C)C)C1(c2ccc(Cl)cc2)CCC1 (centres undefined)", 1.02],
  ["CCC(C)C(NC)C(=O)O (centres undefined)", 1]
]}

Below are some molecules; for each one, tell me its normalized growth.
1. CC(C)=CCCC1(C)C=Cc2c(O)c3c(c(CC=C(C)C)c2O1)OC12C(=CC4CC1C(C)(C)OC2(C/C=C(/C)C(=O)O)C4O)C3=O (centres undefined)
2. CC(=O)NCc1c(I)c(NC(C)=O)c(I)c(C(=O)O)c1I

stdout:
0.849
1
